These data points were gathered from PubChem BioAssay AID2839.

Consider the following compounds and their measured inhibition readings.
- test: PhoP promoter GFP reporter reduction in Typhi – purified and synthesized compounds, set 2, PhoP regulon inhibitor project, dose response (AID 2839)
- run_conditions: Salmonella Typhi PhoP-promoter GFP reporter, low Mg2+, 4 h; at 150 µM (top of the series)
Use % as the unit, but write only the number.

[
  {
    "compound": "S=C(NCc1ccc(Cl)cc1)Nc1ccc(Br)cc1",
    "unit_string": "%",
    "inhibition": 6.57
  }
]

stdin: Could you tell me which inhibition is on file for O=C1C2=C(Nc3ccccc3SC2c2ccccc2C(F)(F)F)c2ccccc21 (stereo not drawn) ?
stdout: 7.29

stdin: Can you share its inhibition? I mean this compound: CCn1cc(C(=O)O)c(=O)c2cc(F)c(N3CCN(C(=S)NCc4ccccc4)CC3)cc21
stdout: 9.85

stdin: Fill in: inhibition of S=C(NCc1ccc(Cl)cc1)Nc1cccnc1 is ___
stdout: -36.6

stdin: Give its inhibition value. Item: COc1ccc(NC(=S)NCc2ccc(Cl)cc2)cc1
stdout: 8.24

stdin: Can you look up the measured inhibition of O=C(Nc1ccccc1)N1CCCN(Cc2ccccc2F)C1 for me?
stdout: 28.7

stdin: Which inhibition value belongs to CCn1cc(C(=O)O)c(=O)c2cc(F)c(N3CCN(C(=S)NC)CC3)cc21 ?
stdout: 4.25

stdin: Item O=C(NCc1ccccc1)N1CCCN(Cc2ccccc2F)C1 has what recorded inhibition?
stdout: 6.93
